src = patent US10065963B2

- System: Phosphorylated Ribosomal Protein S6 (RPS6) in THP-1 cells
- Experiment description: THP-1 RPS6 ELISA assay
- Assay type: cell-based, human
- Run parameters: Homo sapiens, THP-1, THP-1 cells, 10 nM MCP-1; read-out: PI3Kγ_THP1_RPS6_ELISA IC50
Structures can show the parent of a compound that is named as a salt.
Measured endpoint: IC50

Solved entries:
[
  {
    "Compound": "CCOc1c(C(C)NC(=O)c2c(N)nc3ccc(Cl)nn23)cc(Cl)c2cn[nH]c12 (stereo not shown) [Example 45]",
    "Experimental value": "< 500 nM"
  },
  {
    "Compound": "CC(NC(=O)c1c(N)nn2cccnc12)c1cc(Cl)c2cncn2c1N1CC[C@H](F)C1 (stereo partly shown) [Example 75B, bistrifluoroacetate]",
    "Experimental value": "< 500 nM"
  },
  {
    "Compound": "CC(NC(=O)c1c(N)nn2cccnc12)c1cc(Cl)c2c(Br)n[nH]c2c1-c1ccccc1 (stereo not shown) [Example 23]",
    "Experimental value": "< 1000 nM"
  },
  {
    "Compound": "CC(NC(=O)c1c(N)nn2cccnc12)c1cc(Cl)c2cncn2c1N1CCOCC1 (racemic) [Example 145, trifluoroacetate salt]",
    "Experimental value": "> 1000 nM"
  },
  {
    "Compound": "CCOc1c(C(C)NC(=O)c2c(N)nn3ccc(-c4cncc(OC)c4)nc23)cc(Cl)c2cn[nH]c12 (stereo not shown) [Example 41]",
    "Experimental value": "< 500 nM"
  },
  {
    "Compound": "CC(NC(=O)c1c(N)nn2cccnc12)c1cc(Cl)c2cncn2c1-c1ccccn1 (racemic) [Example 133, trifluoroacetate salt]",
    "Experimental value": "< 500 nM"
  },
  {
    "Compound": "C[C@H](NC(=O)c1c(N)nn2cccnc12)c1cc(Cl)c2ccnn2c1N1CCS(=O)(=O)CC1 [Example 57, trifluoroacetate]",
    "Experimental value": "< 500 nM"
  },
  {
    "Compound": "CC(NC(=O)c1c(N)nn2cccnc12)c1cc(Cl)c2cn[nH]c2c1N1CCS(=O)(=O)CC1 (stereo not shown) [Example 94, trifluoroacetate]",
    "Experimental value": "< 500 nM"
  }
]

Query compound follows.
*Q* Assign IC50 to the following record: CC(NC(=O)c1c(N)nn2cccnc12)c1cc(Cl)c2cn[nH]c2c1N1CC[C@@H](NS(C)(=O)=O)C1 (stereo partly shown) [Example 96B, trifluoroacetate]
*A* > 1000 nM

====

- Study system: PI3Kγ (p110γ) Recombinant Human Protein (Homo sapiens (Human))
- Sequence (P48736 whole entry): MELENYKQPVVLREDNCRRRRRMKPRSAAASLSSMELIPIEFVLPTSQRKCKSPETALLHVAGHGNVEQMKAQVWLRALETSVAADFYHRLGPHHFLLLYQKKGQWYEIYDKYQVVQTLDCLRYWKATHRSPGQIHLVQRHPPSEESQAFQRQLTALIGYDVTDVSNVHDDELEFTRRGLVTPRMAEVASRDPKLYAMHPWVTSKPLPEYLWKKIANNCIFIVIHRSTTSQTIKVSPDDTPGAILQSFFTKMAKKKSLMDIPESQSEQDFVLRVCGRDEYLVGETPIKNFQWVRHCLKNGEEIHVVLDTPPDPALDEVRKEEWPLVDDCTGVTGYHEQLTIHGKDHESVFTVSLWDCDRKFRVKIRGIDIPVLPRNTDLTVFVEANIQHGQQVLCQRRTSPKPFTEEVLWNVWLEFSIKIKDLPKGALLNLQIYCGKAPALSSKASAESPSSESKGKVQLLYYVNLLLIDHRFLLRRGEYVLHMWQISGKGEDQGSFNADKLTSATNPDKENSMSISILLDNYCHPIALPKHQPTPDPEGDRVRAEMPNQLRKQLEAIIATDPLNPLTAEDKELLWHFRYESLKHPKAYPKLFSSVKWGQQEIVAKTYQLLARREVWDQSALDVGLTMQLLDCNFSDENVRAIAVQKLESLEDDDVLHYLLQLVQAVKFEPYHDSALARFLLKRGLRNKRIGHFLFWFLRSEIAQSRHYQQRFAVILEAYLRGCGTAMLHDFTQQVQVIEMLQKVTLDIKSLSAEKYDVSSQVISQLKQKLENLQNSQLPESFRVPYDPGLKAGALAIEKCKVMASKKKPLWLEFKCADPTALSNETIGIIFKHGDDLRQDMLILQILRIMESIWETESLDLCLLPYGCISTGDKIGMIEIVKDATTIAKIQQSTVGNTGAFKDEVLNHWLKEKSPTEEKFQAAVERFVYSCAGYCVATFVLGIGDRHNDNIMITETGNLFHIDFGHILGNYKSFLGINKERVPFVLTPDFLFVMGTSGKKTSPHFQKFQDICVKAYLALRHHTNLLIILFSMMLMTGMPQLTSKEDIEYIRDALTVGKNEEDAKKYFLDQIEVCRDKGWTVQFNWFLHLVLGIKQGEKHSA
- Experiment description: PI3K-γ scintillation proximity assay
- Run parameters: 2 μM ATP, 20 μM PIP2
pIC50: −log10 of the molar value. Structures can show the parent of a compound that is named as a salt.
Measured endpoint: pIC50

As a guide, the following entries are already answered.
[
  {
    "Compound": "CC(NC(=O)c1c(N)nn2cccnc12)c1cc(Cl)c2c(Cl)cnn2c1N1CCS(=O)(=O)CC1 (stereo not drawn) [Example 113, trifluoroacetate]",
    "Experimental value": "> 7.00"
  },
  {
    "Compound": "C[C@H](NC(=O)c1c(N)nn2cccnc12)c1cc(Cl)c2c(Cl)ncn2c1N1CCNC(=O)CC1 [Example 161, trifluoroacetate salt]",
    "Experimental value": "> 7.00"
  },
  {
    "Compound": "CC(NC(=O)c1c(N)nn2cccnc12)c1cc(Cl)c2c(C#N)ncn2c1N1CCS(=O)(=O)C(C)C1 (stereo not drawn) [Example 165, trifluoroacetate salt]",
    "Experimental value": "> 7.00"
  },
  {
    "Compound": "CCC(NC(=O)c1c(N)nn2cccnc12)c1cc(Cl)c2cncn2c1N1CCS(=O)(=O)CC1 (stereo not drawn) [Example 179, trifluoroacetate salt]",
    "Experimental value": "> 7.00"
  },
  {
    "Compound": "CC(NC(=O)c1c(N)nn2cccnc12)c1cc(Cl)c2cncn2c1N1CCC(C#N)CC1 (stereo not drawn) [Example 153, trifluoroacetate salt]",
    "Experimental value": "> 7.00"
  }
]

*Q* Look up and state reported pIC50 for CNS(=O)(=O)c1ccc(-c2c(C(C)NC(=O)c3c(N)nn4cccnc34)cc(Cl)c3cncn23)cc1 (racemic) [Example 135, trifluoroacetate salt]
*A* > 7.00

*Q* In one line, give reported pIC50 of the entry CCc1n[nH]c2c(-c3ccccc3)c(C(C)NC(=O)c3c(N)nn4cccnc34)cc(Cl)c12 (stereo not drawn) [Example 51, trifluoroacetate] .
*A* > 5.70

====

Quick reference for IC50 among some molecules
- System: Phosphorylated Ribosomal Protein S6 (RPS6) in THP-1 cells
- Experiment description: THP-1 RPS6 ELISA assay
- Assay type: cell-based, human
- Run parameters: Homo sapiens, THP-1, THP-1 cells, 10 nM MCP-1; read-out: PI3Kγ_THP1_RPS6_ELISA IC50
Structures can show the parent of a compound that is named as a salt.

*Q* Give Phosphorylated Ribosomal Protein S6 (RPS6) in THP-1 cells IC50 for the following molecule: CC(NC(=O)c1c(N)nn2cccnc12)c1cc(Cl)c2cn[nH]c2c1C1=CCC(C#N)CC1 (stereo not shown) [Example 101, trifluoroacetate]
*A* < 500 nM

*Q* Tell me IC50 of CC(NC(=O)c1c(N)nn2cccnc12)c1cc(Cl)c2cncn2c1N1CCCC1 (racemic) [Example 142, trifluoroacetate salt] when tested on Phosphorylated Ribosomal Protein S6 (RPS6) in THP-1 cells.
*A* < 500 nM

====

- Study system: PI3Kδ (p110δ/p85α) Recombinant Human Protein (Homo sapiens (Human), UniProt O00329)
- Sequence (O00329 whole entry): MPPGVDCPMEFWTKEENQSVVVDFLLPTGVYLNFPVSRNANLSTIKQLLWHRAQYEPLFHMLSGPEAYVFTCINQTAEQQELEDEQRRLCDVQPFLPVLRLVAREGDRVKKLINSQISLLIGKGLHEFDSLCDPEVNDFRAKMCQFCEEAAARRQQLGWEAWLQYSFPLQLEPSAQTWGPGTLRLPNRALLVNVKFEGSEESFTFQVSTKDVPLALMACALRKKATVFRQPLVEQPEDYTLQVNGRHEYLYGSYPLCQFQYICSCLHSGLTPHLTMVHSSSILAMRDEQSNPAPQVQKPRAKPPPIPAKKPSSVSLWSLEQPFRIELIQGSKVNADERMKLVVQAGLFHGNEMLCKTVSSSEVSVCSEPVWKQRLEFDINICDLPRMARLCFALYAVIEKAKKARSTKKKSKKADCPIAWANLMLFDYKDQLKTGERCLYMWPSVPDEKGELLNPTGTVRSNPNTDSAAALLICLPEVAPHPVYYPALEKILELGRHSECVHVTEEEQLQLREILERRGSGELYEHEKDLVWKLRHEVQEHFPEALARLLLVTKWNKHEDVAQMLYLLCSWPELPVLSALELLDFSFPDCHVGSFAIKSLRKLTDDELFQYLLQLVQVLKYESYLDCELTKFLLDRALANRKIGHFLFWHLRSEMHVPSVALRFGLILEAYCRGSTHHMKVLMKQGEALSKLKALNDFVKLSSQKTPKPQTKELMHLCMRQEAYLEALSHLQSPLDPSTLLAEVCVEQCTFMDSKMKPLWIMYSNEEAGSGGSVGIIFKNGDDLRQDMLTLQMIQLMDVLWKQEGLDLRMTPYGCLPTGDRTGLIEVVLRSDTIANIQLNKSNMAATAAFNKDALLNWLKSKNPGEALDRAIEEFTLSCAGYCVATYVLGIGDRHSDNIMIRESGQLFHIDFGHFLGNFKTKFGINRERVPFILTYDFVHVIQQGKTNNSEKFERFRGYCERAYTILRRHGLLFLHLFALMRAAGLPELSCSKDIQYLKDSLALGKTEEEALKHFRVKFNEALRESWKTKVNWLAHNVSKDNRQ
- Sequence (P27986 whole entry partner): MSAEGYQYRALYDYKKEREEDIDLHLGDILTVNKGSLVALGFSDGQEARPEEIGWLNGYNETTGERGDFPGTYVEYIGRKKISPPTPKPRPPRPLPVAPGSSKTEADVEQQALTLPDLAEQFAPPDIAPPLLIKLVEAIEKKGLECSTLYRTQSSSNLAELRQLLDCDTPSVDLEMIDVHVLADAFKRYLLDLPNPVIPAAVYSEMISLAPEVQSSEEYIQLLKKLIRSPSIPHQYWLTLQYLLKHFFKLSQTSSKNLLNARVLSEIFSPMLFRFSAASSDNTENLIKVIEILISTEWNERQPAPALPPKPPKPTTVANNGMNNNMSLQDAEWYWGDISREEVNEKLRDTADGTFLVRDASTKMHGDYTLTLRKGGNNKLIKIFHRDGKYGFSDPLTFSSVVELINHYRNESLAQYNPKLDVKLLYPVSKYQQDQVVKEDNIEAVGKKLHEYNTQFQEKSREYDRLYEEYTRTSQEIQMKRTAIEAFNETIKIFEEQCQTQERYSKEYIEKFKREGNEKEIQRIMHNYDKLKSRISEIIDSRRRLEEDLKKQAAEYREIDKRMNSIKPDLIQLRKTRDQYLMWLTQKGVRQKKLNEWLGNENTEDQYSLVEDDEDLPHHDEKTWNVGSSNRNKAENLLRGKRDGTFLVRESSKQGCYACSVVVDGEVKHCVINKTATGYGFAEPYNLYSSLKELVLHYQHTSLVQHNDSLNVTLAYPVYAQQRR
- Experiment description: PI3Kδ scintillation proximity assay
- Format: biochemical
- Run parameters: 2 μM ATP, 20 μM PIP2
pIC50: −log10 of the molar value. Counter-ions that a name gives are not always drawn.
Quick reference: pIC50 of the listed items.

[
  {
    "Compound": "CC(NC(=O)c1c(N)nn2cccnc12)c1cc(Cl)c2cncn2c1N1CCN(S(C)(=O)=O)CC1 (racemic) [Example 141, trifluoroacetate salt]",
    "Study system": "PI3Kδ (p110δ/p85α) Recombinant Human Protein (Homo sapiens (Human), UniProt O00329)",
    "pIC50": "> 6.30"
  },
  {
    "Compound": "CC(NC(=O)c1c(N)nn2cccnc12)c1cc(Cl)c2cncn2c1N1CC[C@@H](F)C1 (stereo partly drawn) [Example 75A, bistrifluoroacetate]",
    "Study system": "PI3Kδ (p110δ/p85α) Recombinant Human Protein (Homo sapiens (Human), UniProt O00329)",
    "pIC50": "> 6.30"
  },
  {
    "Compound": "CC(NC(=O)c1c(N)nn2cccnc12)c1cc(Cl)c2cn[nH]c2c1N1CCS(=O)(=O)CC1 (stereo not drawn) [Example 94, trifluoroacetate]",
    "Study system": "PI3Kδ (p110δ/p85α) Recombinant Human Protein (Homo sapiens (Human), UniProt O00329)",
    "pIC50": "> 6.30"
  }
]

*Q* Please look at this compound and report its pIC50: CC(NC(=O)c1c(N)nn2cccnc12)c1cc(Cl)c2cncn2c1N1CCC(F)(F)CC1 (stereo not drawn) [Example 65, bistrifluoroacetate]
*A* > 7.00

*Q* Item CC(NC(=O)c1c(N)nn2cccnc12)c1cc(Cl)c2cncn2c1N1CCCC(O)(C(F)(F)F)C1 (single isomer, unassigned) [Example 78B, trifluoroacetate] : provide pIC50
*A* > 7.00

*Q* Item Cc1nc(Cl)c2c(Cl)cc(C(C)NC(=O)c3c(N)nn4cccnc34)c(-c3cn[nH]c3)n12 (racemic) [Example 122, trifluoroacetate salt] : provide pIC50
*A* > 7.00

*Q* # return recorded pIC50 for entry CC(NC(=O)c1c(N)nn2cccnc12)c1cc(Cl)c2c(C(F)(F)F)ncn2c1N1CCNS(=O)(=O)CC1 (racemic) [Example 159, trifluoroacetate salt]
*A* > 5.70

*Q* Find the measured pIC50 of C[C@H](NC(=O)c1c(N)nn2cccnc12)c1cc(Cl)c2c(F)cnn2c1N1CCS(=O)(=O)CC1 [Example 58, trifluoroacetate] and report it.
*A* > 7.00

*Q* Return pIC50 for the following compound: CC(NC(=O)c1c(N)nn2cccnc12)c1cc(Cl)c2cncn2c1N1CCCC(C)(O)C1 (single isomer, unassigned) [Example 76A, trifluoroacetate]
*A* > 7.00

*Q* Please give the documented pIC50 of CC(NC(=O)c1c(N)nn2cccnc12)c1cc(Cl)c2ccnn2c1-c1cccnc1 (stereo not drawn) [Example 59, trifluoroacetate]
*A* > 7.00

*Q* Annotate the compound CC(NC(=O)c1c(N)nn2cccnc12)c1cc(Cl)c2cncn2c1N1CCC(F)(F)C1 (stereo not drawn) [Example 68, bistrifluoroacetate] with its measured pIC50.
*A* > 7.00

*Q* Provide measured pIC50 value, entry: CC(NC(=O)c1c(N)nn2cccnc12)c1cc(Cl)c2cncn2c1N1C[C@H](O)C[C@H](C#N)C1 (stereo partly drawn) [Example 157, trifluoroacetate salt]
*A* > 6.30
